# ASSAY_METHOD_TEXT: In vivo pharmacokinetics in rats, intravenous injection and oral administration
# Set-up: species or system Sprague Dawley rats
# EXPERIMENTAL_PARAMETERS: male, Sprague-Dawley, plasma; rat, oral administration 1 mg/kg
Reported Cmax values for the following compounds.
OBSERVATION_TYPE: Cmax (µg/mL)

COMPOUND: O=C(O)C[C@H]1CCc2c1[nH]c1ccc(OCc3ccc(C4CCCC4)c(C(F)(F)F)c3)cc21 [APD334, reference compound]
OBSERVED_VALUE: 0.341
--
COMPOUND: O=C(O)CCc1[nH]c2ccc(OCc3ccc(C4CCCC4)c(C(F)(F)F)c3)cc2c1Cl
OBSERVED_VALUE: 0.184
--
COMPOUND: O=C(O)CCc1[nH]c2ccc(OCc3ccc(C4CCCC4)c(C(F)(F)F)c3)cc2c1F
OBSERVED_VALUE: 0.258
--
COMPOUND: Cc1c(CCC(=O)O)[nH]c2ccc(OCc3ccc(C4CCCC4)c(C(F)(F)F)c3)cc12
OBSERVED_VALUE: 0.162

Hello, the source for this data is patent US12195457B2, in case you need it.
